Measured abundance fitness of individual entries
B1: Lysine-specific demethylase 2B, residues 656 to 722; numbered along this chain, Q8NHM5 (parent)
chain: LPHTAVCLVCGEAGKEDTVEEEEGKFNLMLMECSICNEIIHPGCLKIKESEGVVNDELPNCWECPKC

Variants of: B1
experiment_summary: abundance fitness (aPCA) (normalised: wild type 0, dead -1); higher = more abundant; growth selection in yeast, the domain comes from the species named
measurement_parameters: Homo sapiens

- mutation_spec: "N37D"
  abundance fitness: -0.026
- mutation_spec: "I39G"
  abundance fitness: -0.141
- mutation_spec: "K66G"
  abundance fitness: -0.263
- mutation_spec: "N37G"
  abundance fitness: 0.092
- mutation_spec: "C10N"
  abundance fitness: -0.259
- mutation_spec: "H3F"
  abundance fitness: -0.359
- mutation_spec: "A5K"
  abundance fitness: 0.038
- mutation_spec: "P2E"
  abundance fitness: 0.854
- mutation_spec: "I35D"
  abundance fitness: -0.323
- mutation_spec: "H3T"
  abundance fitness: 0.147
- mutation_spec: "E51K"
  abundance fitness: -0.027
- mutation_spec: "K25S"
  abundance fitness: -0.348
- mutation_spec: "S34L"
  abundance fitness: -0.36
- mutation_spec: "C64G"
  abundance fitness: -0.889
- mutation_spec: "S50F"
  abundance fitness: 0.039
- mutation_spec: "P59T"
  abundance fitness: -0.012
- mutation_spec: "S50K"
  abundance fitness: -0.025
- mutation_spec: "G14F"
  abundance fitness: 0.104
- mutation_spec: "E20Q"
  abundance fitness: -0.126
- mutation_spec: "E38W"
  abundance fitness: -0.163
- mutation_spec: "L8R"
  abundance fitness: 0.104
- mutation_spec: "L45D"
  abundance fitness: -0.483
- mutation_spec: "H3K"
  abundance fitness: 0.506
- mutation_spec: "F26A"
  abundance fitness: -0.204
- mutation_spec: "F26Q"
  abundance fitness: -0.37
- mutation_spec: "C10M"
  abundance fitness: -0.613
- mutation_spec: "I35V"
  abundance fitness: 0.037
- mutation_spec: "C44M"
  abundance fitness: -0.735
- mutation_spec: "H41C"
  abundance fitness: -0.767
- mutation_spec: "E21C"
  abundance fitness: -0.068
- mutation_spec: "M29E"
  abundance fitness: -0.362
- mutation_spec: "L28K"
  abundance fitness: 0.152
- mutation_spec: "I39Y"
  abundance fitness: 0.076
- mutation_spec: "K15D"
  abundance fitness: -1.01
- mutation_spec: "C64L"
  abundance fitness: -0.935
- mutation_spec: "G24T"
  abundance fitness: 0.019
- mutation_spec: "W62Y"
  abundance fitness: -0.296
- mutation_spec: "E38R"
  abundance fitness: 0.104
- mutation_spec: "N60H"
  abundance fitness: -0.127
- mutation_spec: "P42Q"
  abundance fitness: -0.189
- mutation_spec: "L58E"
  abundance fitness: 0.011
- mutation_spec: "L30G"
  abundance fitness: -0.209
- mutation_spec: "M31F"
  abundance fitness: -0.272
- mutation_spec: "I35N"
  abundance fitness: -0.295
- mutation_spec: "E51L"
  abundance fitness: -0.385
- mutation_spec: "V53G"
  abundance fitness: -0.078
- mutation_spec: "K25R"
  abundance fitness: -0.324
- mutation_spec: "T18Q"
  abundance fitness: -0.062
- mutation_spec: "P59D"
  abundance fitness: -0.424
- mutation_spec: "G11L"
  abundance fitness: 0.046
- mutation_spec: "K46E"
  abundance fitness: 0.206
- mutation_spec: "S34I"
  abundance fitness: -0.058
- mutation_spec: "V19E"
  abundance fitness: -0.469
- mutation_spec: "C64F"
  abundance fitness: -0.719
- mutation_spec: "E32H"
  abundance fitness: 0.103
- mutation_spec: "D17W"
  abundance fitness: -0.553
- mutation_spec: "T4D"
  abundance fitness: -0.2
- mutation_spec: "G52P"
  abundance fitness: 0.171
- mutation_spec: "E57F"
  abundance fitness: -0.107
- mutation_spec: "N27F"
  abundance fitness: -0.22
- mutation_spec: "V6T"
  abundance fitness: 0.12
- mutation_spec: "E32C"
  abundance fitness: 0.088
- mutation_spec: "K15T"
  abundance fitness: -0.202
- mutation_spec: "N55S"
  abundance fitness: 0.087
- mutation_spec: "E16Y"
  abundance fitness: -0.786
- mutation_spec: "W62K"
  abundance fitness: -0.339
- mutation_spec: "D17I"
  abundance fitness: 0.068
- mutation_spec: "G43T"
  abundance fitness: -0.375
- mutation_spec: "G14R"
  abundance fitness: 0.04
- mutation_spec: "G24H"
  abundance fitness: 0.346
- mutation_spec: "W62Q"
  abundance fitness: -0.601
- mutation_spec: "E49G"
  abundance fitness: 0.008
- mutation_spec: "V19T"
  abundance fitness: 0.013
- mutation_spec: "E21L"
  abundance fitness: -0.284
- mutation_spec: "G24R"
  abundance fitness: -0.121
- mutation_spec: "A13D"
  abundance fitness: -0.138
- mutation_spec: "E38A"
  abundance fitness: -0.356
- mutation_spec: "T4W"
  abundance fitness: -0.889
- mutation_spec: "D56N"
  abundance fitness: -0.017
- mutation_spec: "K48Y"
  abundance fitness: 0.011
- mutation_spec: "C67E"
  abundance fitness: -0.596
- mutation_spec: "C44W"
  abundance fitness: -0.8
- mutation_spec: "C33M"
  abundance fitness: -0.642
- mutation_spec: "L30F"
  abundance fitness: -0.778
- mutation_spec: "V54C"
  abundance fitness: -0.275
- mutation_spec: "I47T"
  abundance fitness: 0.08
- mutation_spec: "H3P"
  abundance fitness: -0.14
- mutation_spec: "M29W"
  abundance fitness: -0.522
- mutation_spec: "C44V"
  abundance fitness: -0.906
- mutation_spec: "C67R"
  abundance fitness: -1.26
- mutation_spec: "L8H"
  abundance fitness: -0.281
